All figures here come from paper PMC7731283.

Assay: Log P by RP-HPLC (HPLC-PDA), extrapolation of Log k to 0% MeOH
Assay type: physicochemical
Conditions: 60% MeOH, RP-C18
readout label: Log k

(1) O=[N+]([O-])c1ccc(/C=C/c2ccc(O)c(Cl)c2)cc1
(2) Oc1ccc(/C=C/c2ccc(Cl)cc2Cl)cc1
I'm curious, which of these has a smaller Log k number: 1 or 2 ? Refer to your chosen entry by its label in the reply.
1

====

readout label: melting point

// worked examples, melting point included
compound	melting point
Oc1ccc(/C=C/c2ccc(C(F)(F)F)cc2)cc1Cl	117 to 118.4 °C
Oc1ccc(/C=C/c2ccc(Cl)cc2)cc1 [Compound 1, 4-[(E)-2-(4-Chlorophenyl)vinyl]phenol]	184 to 185 °C
Oc1ccc(/C=C/c2ccccc2)cc1Cl [Compound 2, 2-Chloro-4-[(E)-2-phenylvinyl]phenol]	126 to 127 °C
Oc1ccc(/C=C/c2ccc(Cl)cc2Cl)cc1Cl	135 to 136 °C

For `Oc1ccc(/C=C/c2ccc(Cl)cc2Cl)cc1` , what is its reported melting point?
119 to 120 °C

State the recorded melting point for this entry: `Oc1ccc(/C=C/c2ccc(C(F)(F)F)cc2)cc1`
161 to 163 °C
